B1: library; numbered along this chain (parent)
chain: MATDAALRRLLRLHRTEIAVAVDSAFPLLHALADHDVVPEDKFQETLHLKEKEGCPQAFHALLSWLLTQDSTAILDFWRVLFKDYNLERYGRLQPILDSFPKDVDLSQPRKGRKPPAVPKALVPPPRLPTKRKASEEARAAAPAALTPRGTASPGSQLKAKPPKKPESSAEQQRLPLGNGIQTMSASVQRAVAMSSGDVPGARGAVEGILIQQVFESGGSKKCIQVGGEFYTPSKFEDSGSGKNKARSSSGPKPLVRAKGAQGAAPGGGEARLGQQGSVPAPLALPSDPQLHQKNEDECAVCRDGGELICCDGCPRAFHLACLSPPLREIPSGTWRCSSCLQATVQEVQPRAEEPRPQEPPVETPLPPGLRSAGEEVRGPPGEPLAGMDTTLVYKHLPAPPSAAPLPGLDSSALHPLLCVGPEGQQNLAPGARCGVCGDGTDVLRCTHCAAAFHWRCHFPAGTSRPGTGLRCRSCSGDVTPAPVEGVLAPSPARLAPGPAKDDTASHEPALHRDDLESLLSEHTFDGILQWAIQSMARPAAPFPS

- Variants of: B1
- run-description: AIRE transcriptional activation functional score (insulin promoter-GFP; nonsense median 0, synonymous median 1) (normalised score); higher = higher AIRE activity (more reporter activation)
- particulars: with insulin promoter-GFP reporter in HEK293
Below, each entry is listed with its recorded AIRE transcriptional activation functional score.
Lab note: write the figure by itself, no unit.

- V362A: 1.13

Task item: # query: AIRE transcriptional activation functional score of entry L409T
Reply: 1.02

Task item: Do the same for L323M please
Reply: 1.8

Task item: Do the same for A191E please
Reply: 0.164

Task item: Do the same for A140W please
Reply: 1.46
